So I've got a bunch of binders here, and I need their pIC50 values.
Target: T1, C-terminally 6x Histidine-tagged Beta-Catenin (aa 134-668, 59 KD) (UniProt P35222 134-668)
T1 construct: range 134-668; Armadillo repeat region
T1 sequence: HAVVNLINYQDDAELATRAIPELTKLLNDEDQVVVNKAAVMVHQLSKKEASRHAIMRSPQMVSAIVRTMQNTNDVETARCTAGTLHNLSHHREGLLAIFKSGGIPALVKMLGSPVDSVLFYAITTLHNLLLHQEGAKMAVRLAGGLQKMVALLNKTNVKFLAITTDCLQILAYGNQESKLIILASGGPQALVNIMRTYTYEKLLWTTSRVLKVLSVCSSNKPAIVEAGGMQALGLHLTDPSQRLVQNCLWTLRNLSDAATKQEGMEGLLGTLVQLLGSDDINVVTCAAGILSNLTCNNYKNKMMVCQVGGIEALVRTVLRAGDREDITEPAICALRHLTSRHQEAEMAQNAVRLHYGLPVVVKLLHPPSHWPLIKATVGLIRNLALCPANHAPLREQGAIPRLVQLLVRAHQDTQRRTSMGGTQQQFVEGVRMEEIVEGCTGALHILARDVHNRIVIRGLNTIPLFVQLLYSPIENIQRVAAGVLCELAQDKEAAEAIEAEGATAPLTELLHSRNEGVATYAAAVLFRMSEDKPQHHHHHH
Test: competitive fluorescence polarization, FAM-labelled linear probe as competitor, His-tagged beta-catenin 134-668
Would you please state pIC50, meaning minus log10 of the concentration in mol/L, as a bare number?

Q: What does the data say about its pIC50? Entry: LGANDELISFADEGAQEEKSSNNSSAARDLADVKSSLV (not fully specified; N-terminal acetyl; C-terminal amide; $ = (S)-alpha-(2'-pentenyl)alanine at positions 11 and 15 (first crosslink) and 27 and 31 (second crosslink), each pair joined by an all-carbon crosslinker with one double bond) [SP37]
Result: 7.25

Q: Which pIC50 is reported for this binder? LGANDELISFANQGAQEEKSSNNSSAARNLADVKSSLV (not fully specified; N-terminal acetyl; C-terminal amide; $ = (S)-alpha-(2'-pentenyl)alanine at positions 11 and 15 (first crosslink) and 27 and 31 (second crosslink), each pair joined by an all-carbon crosslinker with one double bond) [SP57]
Result: 6.39

Q: Quick one: pIC50 of SP51 (not fully specified; N-terminal acetyl; C-terminal amide; PEG4 = NH-(PEG)4-COOH (19 atoms) linker between the two peptide parts; $ = (S)-alpha-(2'-pentenyl)alanine at positions 11 and 15 of the first part and at positions 2 and 6 of the second part, each pair joined by an all-carbon crosslinker with one double bond, The two peptide parts are joined by a non-peptide PEG4 spacer, not by a peptide bond) peptide: LGANDELISFADEGAQEEKSS AARDLANVKSSLV ?
Result: 6.22
